Sourced from patent US20210145730A1

EXPERIMENTAL DETAILS: SAXS liquid crystalline phase formation for mixes of GMO and another ingredient immersed in PBS buffer (Example 1)
Assay type: physicochemical
EXPERIMENTAL PARAMETERS: Concentration in GMO 5%
Description: The samples were then mixed via a roller mixer at ˜10 RPM at 40° C. for at least 3 days. One week prior to SAXS experiment, 100 mg samples were loaded into a transparent polystyrene 96 well plate (Nunc™) and immersed in 200 μL of PBS buffer (pH 6.8). The samples were stored away from light at ambient temperature, to allow the samples to reach equilibrium. […] The 2-D diffraction images were recorded on a Pilatus 1M detector and radially integrated using the in-house software “ScatterBrain”.
Where a name gives a salt, the structure may show the parent alone.
VALUE TYPE: Phase structure

INSERT INTO results (molecule, recorded_result) VALUES
  ('CCOC(=O)CC(O)(CC(=O)OCC)C(=O)OCC [Tri ethyl citrate (TEC), Tri ethyl citrate]', 'V2(Pn3m)'),
  ('O=S(=O)([O-])NC1CCCCC1.[Na+] [Sodium cyclamate]', 'V2(Pn3m)'),
  ('CC(C)c1nc(N(C)S(C)(=O)=O)nc(-c2ccc(F)cc2)c1/C=C/[C@@H](O)C[C@@H](O)CC(=O)O [Rosuvastatin, reference compound]', 'V2(Pn3m)');
